Assay: Hemolytic activity against Mianyang red blood cells (unknown origin)
Format: toxicity, cell-based, RBC
test_readout: HC50

compound: CC1(C)CC[C@]2(C(=O)O)CC[C@]3(C)C(=CC[C@@H]4[C@@]5(C)CC[C@H](OC(=O)c6ccccc6C(=O)O)C(C)(C)[C@@H]5CC[C@]43C)[C@@H]2C1
test_readout: HC50
observed_value: > 1020 µg/mL
//
compound: OC(Cn1cncn1)(Cn1cncn1)c1ccc(F)cc1F
test_readout: HC50
observed_value: > 256 µg/mL
//
compound: CC1(C)CC[C@]2(C(=O)O)CC[C@]3(C)C(=CC[C@@H]4[C@@]5(C)CC[C@H](OC(=O)CCCC(=O)O)C(C)(C)[C@@H]5CC[C@]43C)[C@@H]2C1
test_readout: HC50
observed_value: > 1020 µg/mL

The recorded HC50 for entry "CC1(C)S[C@@H]2[C@H](NC(=O)[C@H](N)c3ccccc3)C(=O)N2[C@H]1C(=O)O" equals > 256 µg/mL

Measured HC50 of "CC1(C)CC[C@]2(C(=O)O)CC[C@]3(C)C(=CC[C@@H]4[C@@]5(C)CC[C@H](O)C(C)(C)[C@@H]5CC[C@]43C)[C@@H]2C1" : > 1020 µg/mL

get_value(item= CC1(C)CC[C@]2(C(=O)O)CC[C@]3(C)C(=CC[C@@H]4[C@@]5(C)CC[C@H](OC(=O)CCC(=O)O)C(C)(C)[C@@H]5CC[C@]43C)[C@@H]2C1 [OLEANOLIC ACID 3-O-SUCCINATE] , readout=HC50) returns > 1020 µg/mL

Field HC50 (entry "CN[C@H](CC(C)C)C(=O)N[C@H]1C(=O)N[C@@H](CC(N)=O)C(=O)N[C@H]2C(=O)N[C@H]3C(=O)N[C@H](C(=O)N[C@H](C(=O)O)c4cc(O)cc(O)c4-c4cc3ccc4O)[C@H](O)c3ccc(c(Cl)c3)Oc3cc2cc(c3O[C@@H]2O[C@H](CO)[C@@H](O)[C@H](O)[C@H]2O[C@H]2C[C@](C)(N)[C@H](O)[C@H](C)O2)Oc2ccc(cc2Cl)[C@H]1O" ) reads > 256 µg/mL
